Catalogue of half-life at 1 μM values
# MEASUREMENT DESCRIPTION: Assessment of In Vitro Metabolic Stability in dog liver microsomes
# Format: in vitro ADME
# EXPERIMENTAL CONTEXT: dog liver microsomes 0.5 mg/mL, 1 μM compound, NADPH, 37° C.; read-out: Dog LM t1/2

RECORD SMILES: CN1CCN([C@H]2CC[C@H](n3cc(-c4ccc(Oc5ccccc5)cc4)c4c(N)ncnc43)CC2)CC1
half-life at 1 μM: 0.183 h
--
RECORD SMILES: C[C@H]1CN([C@H]2CC[C@H](n3nc(-c4ccc(Oc5ccccc5)cc4F)c4c(N)ncnc43)CC2)CCN1
half-life at 1 μM: 1.97 h
--
RECORD SMILES: C[C@H]1CN([C@H]2CC[C@H](c3nc(-c4ccc(Oc5ccccc5)cc4F)c4c(N)ncnn43)CC2)CCN1
half-life at 1 μM: 2.78 h
--
RECORD SMILES: CN1CCN([C@H]2CC[C@H](n3nc(-c4ccc(Oc5ccccc5)cc4F)c4c(N)ncnc43)CC2)CC1
half-life at 1 μM: 0.967 h
--
RECORD SMILES: C[C@H]1CN([C@H]2CC[C@H](n3nc(-c4ccc(Oc5ccccc5)cc4)c4c(N)ncnc43)CC2)CCN1
half-life at 1 μM: 2.13 h
--
RECORD SMILES: C[C@H]1CN([C@H]2CC[C@H](n3cc(-c4ccc(Oc5ccccc5)cc4)c4c(N)ncnc43)CC2)CCN1
half-life at 1 μM: 1.4 h
--
RECORD SMILES: CN1CCN([C@H]2CC[C@H](c3nc(-c4ccc(Oc5ccccc5)cc4F)c4c(N)ncnn43)CC2)CC1
half-life at 1 μM: 1.8 h
